test system: HaCaT; assay: Anti-inflammatory activity in human HaCaT cells assessed as inhibition of LPS-induced TNF-alpha production at 12.5 uM after 24 hrs by ELISA relative to LPS alone; type: functional
Provide the reported inhibition at 12.5 µM of each item.
Answers are plain numbers, in %.

compound: CC1=C(CCC2=CC(O)OC2=O)[C@@]2(C)CC[C@@H](O)C(C)(C)[C@@H]2CC1=O (stereo partly drawn)
target or test system: HaCaT
assay endpoint: inhibition at 12.5 µM
unit: %
value measured: 68
--
compound: CC1=C(CCc2ccoc2)[C@@]2(C)CC[C@@H](O)C(C)(C)[C@@H]2[C@H](O)C1=O
target or test system: HaCaT
assay endpoint: inhibition at 12.5 µM
unit: %
value measured: 39.5

Next up:
# get_value(readout='inhibition at 12.5 µM', item= CO[C@H]1C[C@]2(CC[C@@]3(O2)[C@H](C)C(=O)[C@@H](O)[C@H]2C(C)(C)[C@H](O)CC[C@@]23C)CO1 )
44
